Measured values drawn from patent US9233979B2 for this set.

# MEASURED_ON: phosphorylated active hERK2 enzyme (Homo sapiens (Human))
# Sequence (P28482 whole entry): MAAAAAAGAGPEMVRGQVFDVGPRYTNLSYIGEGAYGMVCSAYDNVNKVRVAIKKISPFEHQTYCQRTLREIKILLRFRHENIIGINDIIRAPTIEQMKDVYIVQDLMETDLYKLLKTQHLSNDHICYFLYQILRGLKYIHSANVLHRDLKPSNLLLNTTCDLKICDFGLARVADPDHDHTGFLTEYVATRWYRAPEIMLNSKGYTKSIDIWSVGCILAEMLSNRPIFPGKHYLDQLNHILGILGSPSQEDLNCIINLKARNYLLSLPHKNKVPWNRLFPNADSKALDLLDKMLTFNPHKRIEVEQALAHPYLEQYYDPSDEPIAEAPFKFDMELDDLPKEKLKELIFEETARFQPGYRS
# ASSAY_DETAILS: Active Human ERK2 (hERK2) Activity Assay (IMAP-FP)
# Format: biochemical
# APPLIED_CONDITIONS: Table 6, 0.5 nM hERK2, 30 μM ATP, 10 point titration, read-out: AERK2 IC50
QUANTITY_MEASURED: log10 of IC50 (log10 of the value in nM)
Use the decimal logarithm of IC50 (nM).

[Q] Suppose we examine the compound "CCNc1n[nH]c2cc(NC(=O)N[C@@H](c3ccccc3)[C@H]3CCCO3)ncc12" ; what log10 of IC50 value has been reported?
[A] -0.22

[Q] Subsequent entry: "C[C@@H](NC(=O)Nc1cc2[nH]nc(N3CC(C(C)(C)O)C3)c2cn1)c1ccccc1"
[A] 1.40

[Q] Subsequent entry: C[C@@H](NC(=O)Nc1cc2[nH]nc(NCC3CC(C(C)(C)O)C3)c2cn1)c1ccccc1 (some centres unmarked)
[A] 1.08

[Q] Subsequent entry: "COc1ccccc1CNC(=O)Nc1cc2[nH]nc(N)c2cn1"
[A] 1.03

[Q] Subsequent entry: "C[C@@H](NC(=O)Nc1cc2[nH]nc3c2c(n1)CCN3)c1ccccc1"
[A] 1.09

[Q] Subsequent entry: "C[C@@H](NC(=O)Nc1cc2[nH]nc(NC(=O)OCC(C)(C)C)c2cn1)c1ccccc1"
[A] 2.55

[Q] Subsequent entry: "C[C@@H](NC(=O)Nc1cc2[nH]nc(NCC3CC3)c2cn1)c1ccccc1"
[A] 0.26

[Q] Subsequent entry: "CCNc1n[nH]c2cc(NC(=O)NCc3cccnc3N(C)C)ncc12"
[A] 1.51

[Q] Subsequent entry: "C[C@@H](NC(=O)Nc1cc2[nH]nc(NC(=O)Cc3ccc(F)cc3)c2cn1)c1ccccc1"
[A] -0.30

[Q] Subsequent entry: "Cc1nc(NC(=O)N[C@H](C)c2ccccc2)cc2[nH]nc(N)c12"
[A] -0.15

New cases:
[Q] Suppose we examine the compound CCNc1n[nH]c2cc(NC(=O)NC3CNc4ccccc4C3)ncc12 (centres unmarked) ; what log10 of IC50 value has been reported?
[A] 1.27

[Q] Subsequent entry: "CC(C)(O)[C@@H](NC(=O)Nc1cc2[nH]nc(N3CCC(F)(F)CC3)c2cn1)c1ccccc1"
[A] -0.40
